Every entry's value here was drawn from patent US20230100559A1.

assay-system: SHMT2 (Homo sapiens, UniProt P34897)
Sequence (P34897 30-504): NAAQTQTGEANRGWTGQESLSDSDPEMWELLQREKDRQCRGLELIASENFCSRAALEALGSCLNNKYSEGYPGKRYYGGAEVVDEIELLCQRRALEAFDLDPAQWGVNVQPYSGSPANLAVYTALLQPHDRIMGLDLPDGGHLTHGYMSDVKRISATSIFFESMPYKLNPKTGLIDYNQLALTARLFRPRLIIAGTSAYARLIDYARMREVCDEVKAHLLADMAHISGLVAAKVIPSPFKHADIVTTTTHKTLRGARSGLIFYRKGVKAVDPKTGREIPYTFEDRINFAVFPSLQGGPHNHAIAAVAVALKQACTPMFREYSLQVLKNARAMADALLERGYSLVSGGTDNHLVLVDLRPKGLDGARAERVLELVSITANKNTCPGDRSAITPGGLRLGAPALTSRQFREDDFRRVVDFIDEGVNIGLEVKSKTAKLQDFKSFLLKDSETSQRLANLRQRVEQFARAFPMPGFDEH

molecule	IC50 / nM
Cc1n[nH]c2c1C(c1cc(Cl)cc(C(F)(F)F)c1)(C(C)C)C(C#N)=C(N)O2 (stereo not shown)	35

====

assay-system: SHMT1 (Homo sapiens, UniProt P34896)
Sequence (P34896 1-483): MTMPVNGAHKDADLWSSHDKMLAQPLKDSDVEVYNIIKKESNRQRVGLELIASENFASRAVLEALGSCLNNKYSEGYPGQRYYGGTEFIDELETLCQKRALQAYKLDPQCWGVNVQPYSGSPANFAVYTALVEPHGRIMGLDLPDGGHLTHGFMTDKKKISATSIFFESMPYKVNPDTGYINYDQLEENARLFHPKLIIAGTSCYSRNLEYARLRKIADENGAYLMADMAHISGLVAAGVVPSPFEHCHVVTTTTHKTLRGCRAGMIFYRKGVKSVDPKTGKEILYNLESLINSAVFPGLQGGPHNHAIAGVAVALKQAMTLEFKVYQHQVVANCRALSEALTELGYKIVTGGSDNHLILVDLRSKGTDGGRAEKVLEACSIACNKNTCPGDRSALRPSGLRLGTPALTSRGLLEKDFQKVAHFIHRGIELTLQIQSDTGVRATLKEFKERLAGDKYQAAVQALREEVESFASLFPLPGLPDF
pIC50: −log10 of the molar value.
Consider the following molecules and their measured pIC50 readings.

molecule	pIC50
Cc1n[nH]c2c1C(c1cc(N3CCCC3)cc(C(F)(F)F)c1)(C(C)C)C(C#N)=C(N)O2 (stereo not drawn)	7.89
Cc1n[nH]c2c1C(c1cc(Cl)cc(Cl)c1)(C1CCC1)C(C#N)=C(N)O2 (stereo not drawn)	6.23
Cc1n[nH]c2c1C(c1cc(Cl)cc(Cl)c1)(C(C)C)C(C#N)=C(N)O2 (stereo not drawn)	7.17
